Value source: ChEMBL document CHEMBL2176989

Molecular target: D(2) dopamine receptor (Homo sapiens, UniProt P14416)
Sequence (P14416 whole entry): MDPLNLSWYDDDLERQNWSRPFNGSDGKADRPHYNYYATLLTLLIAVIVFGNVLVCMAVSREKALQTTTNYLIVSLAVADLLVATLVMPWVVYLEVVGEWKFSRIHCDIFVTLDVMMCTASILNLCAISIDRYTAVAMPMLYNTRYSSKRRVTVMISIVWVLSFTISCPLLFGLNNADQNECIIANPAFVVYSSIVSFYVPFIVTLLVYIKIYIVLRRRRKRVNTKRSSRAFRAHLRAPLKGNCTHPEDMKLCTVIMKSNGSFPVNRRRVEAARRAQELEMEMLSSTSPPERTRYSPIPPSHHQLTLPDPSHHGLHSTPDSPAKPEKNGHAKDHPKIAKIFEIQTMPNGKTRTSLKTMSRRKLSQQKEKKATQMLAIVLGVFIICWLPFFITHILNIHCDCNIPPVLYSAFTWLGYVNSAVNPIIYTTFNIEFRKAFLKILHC
Assay: Binding affinity to dopamine D2 receptor
Please respond with reported Ki for every item in the list.
One number for each entry, in nM.

Take each entry in turn and give its Ki.
1. COc1ccc(S(=O)(=O)n2cc(C)c3cc(Cl)ccc32)cc1NC1CCN(C)CC1
2. COc1ccc(S(=O)(=O)n2cc(C)c3cc(Cl)cnc32)cc1NC1CCN(C)CC1

(A)
1. 303
2. 1810

----------
Assay: Apparent volume of distribution in Wistar rat at 10 mg/kg, iv
Assay type: ADME, organism-based
Parameters: dose 10 mg/kg, route intravenous
Settings: in vivo, read-out: Vz
Endpoint: Vd (L/kg)
Give bare numbers, in L/kg.

(Q) Entry COc1ccc(S(=O)(=O)n2cc(C)c3cc(Cl)ccc32)cc1NC1CCN(C)CC1 has what Vd?
(A) 11
